Recorded z-score, one value per entry.
# Assay Details: budding yeast growth changes without added modifier – OD600, strain BY4716, 24 h, basal condition, primary screen (AID 1173)
# Test Parameters: S. cerevisiae BY4716 growth, OD600, 24 h; higher = more signal, called active from +8 up or from −8 down

Molecule	z-score
Cc1ccccc1/C=C/C=O	-1.94
O=C1O[C@H](c2ccccc2)[C@H](c2ccccc2)N2[C@H]1[C@@H](C(=O)NC[C@H](O)c1ccccc1)[C@]1(C(=O)Nc3ccc(C#CC4(O)CCCCCC4)cc31)[C@H]2c1ccccc1OCCO	1.6
CC(=O)NCCCC[C@@H]1NC(=O)[C@@H]2C[C@H](C(=O)NCCCCCC[N+](C)(C)C)[C@H](c3cccc(OCCO)c3)N2C1=O	1.05
Cc1ccc(C(C)CC(O)C2C=CC3C(=O)NC(=O)C3N2Nc2ccccn2)o1 (stereo not drawn)	0.258
C=CCNC(=O)[C@H]1[C@@H]2C(=O)O[C@@H](c3ccccc3)[C@@H](c3ccccc3)N2[C@@H](c2ccc(O)cc2)[C@]12C(=O)Nc1ccc(C#Cc3ccc(OC)cc3)cc12	0.885
COc1ccccc1CN1C(=O)c2ccccc2[C@](Cc2ccccc2I)(C(=O)NCc2ccccc2)[C@@H]1c1ccc(CO)cc1	0.511
C=CC[C@@]1(C(N)=O)N=C(c2ccc(OCCCO)cc2)O[C@@H]1c1ccccc1N=[N+]=[N-]	-1.08
COc1ccc(C(O)C2C=CC3C(=O)N(c4ccccc4)C(=O)C3N2Nc2ccccc2)c2ccccc12 (stereo not drawn)	-5.12

---

# System: PRMT1 (protein arginine N-methyltransferase 1)
# Assay Details: small molecules binding arginine methyltransferase PRMT1 – biochemical, small-molecule microarray, 635 nm fluorescence, primary screen (AID 1088);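 note: binding of Prmt1 protein to compounds spotted on small-molecule microarray slides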
# Test Parameters: higher = more signal
Recorded composite z-score, one value per entry.

Compound	composite z-score
C=CCC(OC(C)=O)[C@@H]1[C@@H](N(Cc2ccc(-c3cccc(C(F)(F)F)c3)o2)C(=O)Cc2ccc(OC)cc2)c2cc(OCCCO)ccc2N1C(=O)Cc1ccc(OC)cc1 (some centres not stated)	-0.0091
C=CC[C@]1(C(=O)O)N=C(c2ccc(OCCCO)cc2)O[C@H]1c1ccccc1CN=[N+]=[N-]	-0.697
O=C1C2C=CC(C(O)c3ccc(B(O)O)cc3)N(Nc3ccc([N+](=O)[O-])cc3)C2C(=O)N1c1ccccc1 (configuration not stated)	1.26
C=C(C(=O)CC[C@@H](OC(C)=O)c1ccc(OCCO)cc1)C(C)C	0.387
COC(=O)c1nc2oc1CC[C@@H](CO)NC(=O)N(C)Cc1cn(nn1)C[C@H](Cc1ccccc1)NC2=O	0.594
O=C1C2C=CC(C(O)C3CC=CCC3)N(n3cnnc3)C2C(=O)N1Cc1ccccc1 (configuration not stated)	1.07
O=C1O[C@@H](c2ccccc2)[C@@H](c2ccccc2)N2[C@@H](c3ccc(O)cc3)[C@]3(C(=O)Nc4ccc(C#CCCO)cc43)[C@@H](C(=O)O)[C@H]12	1.57

---

# Assay Details: budding yeast growth changes without added modifier – OD600, strain BY4716, 24 h, basal condition, primary screen (AID 1173)
# Test Parameters: S. cerevisiae BY4716 growth, OD600, 24 h; higher = more signal, called active from +8 up or from −8 down
The source made the active and inactive calls.

Molecular String	z-score
C=CCN1Cc2ccccc2C[C@]2(N=C(c3ccc(OCCCO)cc3)O[C@@H]2c2ccccc2)C1=O	-1.35 (inactive)
CC(C)N1C(=O)c2ccccc2[C@](C)(C(=O)NC2CC2)[C@@H]1c1ccc(CO)cc1	-0.708 (inactive)
CCOC(=O)C[C@H]1[C@H](OC(=O)c2ccccc2-c2ccccc2)[C@@H](NC(=O)c2ccc(-c3ccccc3)cc2)c2cc(OCCCO)ccc2N1C(=O)c1ccccc1	0.579 (inactive)
CC(C)NC(=O)[C@@]1(c2ccc([N+](=O)[O-])cc2)CC(=O)N(C(C)C)[C@@H]1c1ccc(CO)cc1	0.347 (inactive)
